# TESTED_ON: Aldo-keto reductase family 1 member B1 (Rattus norvegicus) (UniProt P07943)
# ASSAY_OVERVIEW: Inhibition of Rattus norvegicus albino (rat) kidney aldose reductase using D-L-glyceraldehyde as substrate assessed as decrease in NADPH level measured for 5 min by spectrophotometric analysis
Active and inactive are the calls of the source. No cut-off for these calls is given here.
ENDPOINT_NAME: inhibition

INSERT INTO measurements (smi, reported_measurement) VALUES
  ('Nc1ccc(-c2[nH]c3ccccc3c2C=O)cc1', 'inactive'),
  ('O=Cc1c(-c2ccccc2)[nH]c2ccccc12', '7.64%'),
  ('O=Cc1c(-c2ccc(F)cc2)[nH]c2ccccc12', 'inactive'),
  ('O=Cc1c(-c2ccc(Cl)c([N+](=O)[O-])c2)[nH]c2ccccc12', 'inactive'),
  ('Clc1ccc(-c2cc3ccccc3[nH]2)cc1', 'inactive'),
  ('Nc1ccc(-c2cc3ccccc3[nH]2)cc1', '11%'),
  ('c1ccc(-c2cc3ccccc3[nH]2)cc1', 'inactive'),
  ('O=[N+]([O-])c1cc([N+](=O)[O-])c2[nH]c(-c3ccccc3)cc2c1', 'inactive'),
  ('Fc1ccc(-c2cc3ccccc3[nH]2)cc1', 'inactive'),
  ('O=Cc1c(-c2ccc(Cl)cc2)[nH]c2ccccc12', 'inactive'),
  ('Clc1ccc(-c2cc3ccccc3[nH]2)cc1Cl', 'inactive'),
  ('O=[N+]([O-])c1cc(-c2cc3ccccc3[nH]2)ccc1Cl', '5.29%');
